Test system: A2780 ovarian carcinoma cells
assay method text: Antiproliferative activity on A2780 cells (MTT)
Assay type: cell-based, human
stated conditions: Homo sapiens, A2780, 96 h, four days of incubation, read-out: Cellular activity pIC50 C.2. (converted)
observation type: IC50 (nM)

INSERT INTO results (molecule, reading_qualifier, result_value) VALUES
  ('O=C(NO)c1cnc(N2CCN(C(CO)c3ccc4ccccc4c3)CC2)nc1 (centres unmarked)', '=', 20),
  ('O=C(NO)c1cnc(N2CCN(C(CO)c3cc4ccccc4s3)CC2)nc1 (centres unmarked)', '=', 15.8),
  ('O=C(NO)c1cnc(N2CCN(C(CO)c3cn(S(=O)(=O)c4ccccc4)c4ccccc34)CC2)nc1 (centres unmarked)', '<', 31.6),
  ('O=C(NO)c1cnc(N2CCN(C(CO)c3cc4ccccc4o3)CC2)nc1 (centres unmarked)', '=', 31.6),
  ('CC(C)(C)c1ccc(C(C(O)CO)N2CCN(c3ncc(C(=O)NO)cn3)CC2)cc1 (centres unmarked)', '=', 100);

Data provenance is patent US7888360B2.
